- measured-on: c-Src SH2 domain (Homo sapiens)
- Construct: the SH2 domain from c‐Src kinase; His6-SUMO (N, cleaved yes)
- Sequence (P12931 151-248 limits assumed): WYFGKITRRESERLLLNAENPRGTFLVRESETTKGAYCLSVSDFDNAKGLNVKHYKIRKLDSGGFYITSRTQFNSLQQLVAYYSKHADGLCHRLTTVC
- protocol-summary: competitive fluorescence polarization, c-Src SH2 domain
- assay-conditions: Table S3, unpaired validation; competition fluorescence polarization; probe FITC-Ahx-GDG-pY-EEISPLLL-NH2 30 nM; [SH2] 123-126 nM; mean
Non-standard residues stand in square brackets, D forms with d. Residues, ends and D or L forms follow the SMILES beside them. pY = N[C@@H](Cc1ccc(OP(=O)(O)O)cc1)C(=O)O
experimental-endpoint: Kd
Kindly format the answer as number then unit.

Form: item CC(=O)N[C@@H](CCC(N)=O)C(=O)N[C@@H](CCCCN)C(=O)N[C@@H](CCC(=O)O)C(=O)N[C@@H](C)C(=O)N[C@@H](Cc1c[nH]cn1)C(=O)N[C@@H](Cc1c[nH]cn1)C(=O)N[C@@H](Cc1ccc(OP(=O)(O)O)cc1)C(=O)N[C@H](C(=O)N[C@@H](CC(N)=O)C(=O)N[C@@H](Cc1c[nH]c2ccccc12)C(=O)N[C@@H](CCCNC(=N)N)C(=O)N[C@H](C(=O)NCC(N)=O)[C@@H](C)O)C(C)C [Syn-G2-1] (Ac-QKEAHH[pY]VNWRTG-NH2) ; test system c-Src SH2 domain (Homo sapiens); Kd: 9660 nM

Record for CC(=O)N[C@@H](CCC(N)=O)C(=O)N[C@@H](CC(=O)O)C(=O)N[C@@H](CC(=O)O)C(=O)N[C@@H](CCC(N)=O)C(=O)N[C@@H](CCC(=O)O)C(=O)N[C@H](C(=O)N[C@@H](Cc1ccc(OP(=O)(O)O)cc1)C(=O)N[C@@H](CC(=O)O)C(=O)N[C@@H](CC(=O)O)C(=O)N[C@H](C(=O)N[C@@H](C)C(=O)N[C@@H](CCC(=O)O)C(=O)NCC(N)=O)C(C)C)C(C)C [SLAP-130 pY595] (Ac-QDDQEV[pY]DDVAEG-NH2) under target or system c-Src SH2 domain (Homo sapiens): Kd reported as 191 nM

Note to self: Kd of CC[C@H](C)[C@H](NC(=O)[C@H](CCC(=O)O)NC(=O)[C@H](CC(=O)O)NC(=O)[C@H](Cc1ccc(OP(=O)(O)O)cc1)NC(=O)[C@@H](NC(=O)[C@H](CCCNC(=N)N)NC(=O)[C@H](CO)NC(=O)[C@H](CCC(=O)O)NC(=O)[C@H](C)NC(=O)[C@H](CCC(N)=O)NC(C)=O)[C@@H](C)CC)C(=O)N[C@@H](CC(C)C)C(=O)N[C@@H](CCC(N)=O)C(=O)NCC(N)=O [CD84 pY296] (Ac-QAESRI[pY]DEILQG-NH2) with c-Src SH2 domain (Homo sapiens) was 28.1 nM

###

- measured-on: Grb2 SH2 domain (Homo sapiens)
- Sequence (P62993 60-152 limits assumed): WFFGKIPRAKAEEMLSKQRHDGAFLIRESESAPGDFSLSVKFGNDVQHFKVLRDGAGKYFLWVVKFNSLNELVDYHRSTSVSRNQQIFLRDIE
Non-standard residues stand in square brackets, D forms with d. Residues, ends and D or L forms follow the SMILES beside them. pY = N[C@@H](Cc1ccc(OP(=O)(O)O)cc1)C(=O)O
experimental-endpoint: pKd
Entry type: numeric. Quantity: pKd, the -log10 of concentration in molar units.

Consider CC(=O)N[C@@H](CCC(N)=O)C(=O)N[C@@H](Cc1c[nH]cn1)C(=O)N[C@@H](CCCNC(=N)N)C(=O)N[C@@H](CC(C)C)C(=O)N[C@@H](CC(N)=O)C(=O)N[C@@H](CC(N)=O)C(=O)N[C@@H](Cc1ccc(OP(=O)(O)O)cc1)C(=O)N[C@@H](CCC(=O)O)C(=O)N[C@@H](CC(N)=O)C(=O)N[C@@H](CC(N)=O)C(=O)N[C@@H](CCCNC(=N)N)C(=O)N[C@@H](CC(C)C)C(=O)NCC(N)=O [Syn-G2-6] (Ac-QHRLNN[pY]ENNRLG-NH2) . Its measured pKd is 5.65

Values compiled from paper PMC12521615.
